# System: mitochondria or chloroplast of Chlamydomonas reinhardtii
# Protocol Summary: Subcellular localization of Venus reporter by epifluorescence microscopy (manual targeting assignment)
# Assay type: cell-based
# Conditions: peptide-Venus reporter construct expressed in Chlamydomonas reinhardtii; manual targeting assignment (Neither / Mitochondria / Chloroplast / Dual; partial = partial targeting)
Recorded Metric: Localisation

[[record]]
biosequence = "MQVTMKSSAVSGQRVMKYYGNGVHCTRSGCSVNWGEAFSAGVHRLANGGNGFW [c.LCA.R]"
system_name = "mitochondria or chloroplast of Chlamydomonas reinhardtii"
recorded_metric = "Localisation"
meas_value = "Neither"

[[record]]
biosequence = "MALWMTLLRRVLRAAARAALNAVLVGANA [DS4.R]"
system_name = "mitochondria or chloroplast of Chlamydomonas reinhardtii"
recorded_metric = "Localisation"
meas_value = "Neither"

[[record]]
biosequence = "MKYYGNGVHCTKSGCSVNWGEAFSAGVHRLANGGNGFW [LCA.K]"
system_name = "mitochondria or chloroplast of Chlamydomonas reinhardtii"
recorded_metric = "Localisation"
meas_value = "Neither"

[[record]]
biosequence = "MWLSKTAKKLENSAKKRISEGIAIAIKGGSR [CP3.K]"
system_name = "mitochondria or chloroplast of Chlamydomonas reinhardtii"
recorded_metric = "Localisation"
meas_value = "Neither"

[[record]]
biosequence = "MKYYGNGVHCTRSGCSVNWGEAFSAGVHRLANGGNGFW [LCA.R]"
system_name = "mitochondria or chloroplast of Chlamydomonas reinhardtii"
recorded_metric = "Localisation"
meas_value = "Neither"

[[record]]
biosequence = "MGLFSRFNRRRIRSGLIRIIRTAGREAGLEALRTGIDVIGCRIRGEC [E1S.R]"
system_name = "mitochondria or chloroplast of Chlamydomonas reinhardtii"
recorded_metric = "Localisation"
meas_value = "Neither"

[[record]]
biosequence = "MQVTMKSSAVSGQRVGIGRFLHSARRFGRAFVGEIMNSLTQTAESFRGVSSQFFDAPNGPSVKQVLIEDEW [c.MII.R.m]"
system_name = "mitochondria or chloroplast of Chlamydomonas reinhardtii"
recorded_metric = "Localisation"
meas_value = "Dual"

[[record]]
biosequence = "MQVTMKSSAVSGQRVMVNYGNGVSCSRTRCSVNWGIITHQAFRVTSGVASGLTQTAESFRGVSSQFFDAPNGPSVKQVLIEDEW [c.B15.R.m]"
system_name = "mitochondria or chloroplast of Chlamydomonas reinhardtii"
recorded_metric = "Localisation"
meas_value = "Chloroplast"

[[record]]
biosequence = "MQVTMKSSAVSGQRVALWMTLLKKVLKAAAKAALNAVLVGANA [c.DS4.K]"
system_name = "mitochondria or chloroplast of Chlamydomonas reinhardtii"
recorded_metric = "Localisation"
meas_value = "Neither"

[[record]]
biosequence = "MFLPLLAGLAANFLPKIFCKITRKCSVRRAQLQVVASSRKQMGRWRSIDAGVDASDDQ [B1E.K.c]"
system_name = "mitochondria or chloroplast of Chlamydomonas reinhardtii"
recorded_metric = "Localisation"
meas_value = "Neither"

[[record]]
biosequence = "MQVTMKSSAVSGQRVMVNYGNGVSCSKTKCSVNWGIITHQAFRVTSGVASGSVRRAQLQVVASSRKQMGRWRSIDAGVDASDDQ [c.B15.K.c]"
system_name = "mitochondria or chloroplast of Chlamydomonas reinhardtii"
recorded_metric = "Localisation"
meas_value = "Chloroplast"

[[record]]
biosequence = "MWLSKTAKKLENSAKKRISEGIAIAIKGGSRLTQTAESFRGVSSQFFDAPNGPSVKQVLIEDEW [CP3.K.m]"
system_name = "mitochondria or chloroplast of Chlamydomonas reinhardtii"
recorded_metric = "Localisation"
meas_value = "Neither"

[[record]]
biosequence = "MQVTMKSSAVSGQRVMKYYGNGVHCTRSGCSVNWGEAFSAGVHRLANGGNGFWLTQTAESFRGVSSQFFDAPNGPSVKQVLIEDEW [c.LCA.R.m]"
system_name = "mitochondria or chloroplast of Chlamydomonas reinhardtii"
recorded_metric = "Localisation"
meas_value = "Neither"

[[record]]
biosequence = "MGIGKFLHSAKKFGKAFVGEIMNSLTQTAESFRGVSSQFFDAPNGPSVKQVLIEDEW [MII.K.m]"
system_name = "mitochondria or chloroplast of Chlamydomonas reinhardtii"
recorded_metric = "Localisation"
meas_value = "Mitochondria (partial)"

[[record]]
biosequence = "MGIGRFLHSARRFGRAFVGEIMNSLTQTAESFRGVSSQFFDAPNGPSVKQVLIEDEW [MII.R.m]"
system_name = "mitochondria or chloroplast of Chlamydomonas reinhardtii"
recorded_metric = "Localisation"
meas_value = "Mitochondria (partial)"

[[record]]
biosequence = "MKYYGNGVHCTKSGCSVNWGEAFSAGVHRLANGGNGFWLTQTAESFRGVSSQFFDAPNGPSVKQVLIEDEW [LCA.K.m]"
system_name = "mitochondria or chloroplast of Chlamydomonas reinhardtii"
recorded_metric = "Localisation"
meas_value = "Neither"

